Measurement target: T1, recombinant human TROP2 protein (human, UniProt P09758 27-274)
T1 chain: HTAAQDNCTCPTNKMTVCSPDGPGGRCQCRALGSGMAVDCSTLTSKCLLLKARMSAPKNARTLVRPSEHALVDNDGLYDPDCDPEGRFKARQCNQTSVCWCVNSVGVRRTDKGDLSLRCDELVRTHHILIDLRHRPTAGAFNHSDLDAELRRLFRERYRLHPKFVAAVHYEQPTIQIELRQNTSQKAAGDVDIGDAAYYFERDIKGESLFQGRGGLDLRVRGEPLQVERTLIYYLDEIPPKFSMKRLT
Assay: binding of TROP2 protein to binder-expressing γδ T cells
Readout type: EC50 (nM)
Quick reminder: number only, in nM, skip the unit.

Inquiry: Look up and state reported EC50 for TROP2 CAR with anti-TROP2 VHH #TP14, on γδ T cells (other) EVQVVESGGGLVQPGGSLRLSCAVSGFTLDWYAIGWFRQAPGKEHEGVACIDPSERSTYADPVKGRFTISRDNAKNTVHLQMNSLKPEDTAVYYCAADTLPCFFYGSMWPPPDNWGQGTQVTVSSTTTPAPRPPTPAPTIASQPLSLRPEACRPAAGGAVHTRGLDFACDIYIWAPLAGTCGVLLLSLVITLYCKRGRKKLLYIFKQPFMRPVQTTQEEDGCSCRFPEEEEGGCELRVKFSRSADAPAYQQGQNQLYNELNLGRREEYDVLDKRRGRDPEMGGKPRRKNPQEGLYNELQKDKMAEAYSEIGMKGERRRGKGHDGLYQGLSTATKDTYDALHMQALPPR
Reply text: 3.65
